Known log10 of MIC of a selection of molecules
- System: SAUR 9218
- method.summary: MIC Test Method, standard agar dilution
- Assay type: cell-based
- measurement.conditions: agar dilution, Mueller Hinton agar, incubated overnight at 35° C.; lowest concentration that inhibits visible growth; read-out: SAUR 9218 MIC
measurement.kind: log10 of MIC (log10 of the value in µg/mL)

molecule	log10 of MIC
Cc1sc(C(=O)Nc2ccc(Br)cc2C(=O)O)cc1S(=O)(=O)NC1Cc2ccccc2C1	0.90
Cn1c(C(=O)Nc2ccc(C#N)cc2C(=O)O)cc2cccc(C(OOSc3cnc(Cl)c(Br)c3)S(=O)(=O)c3cnc(Cl)c(Br)c3)c21 (stereo not drawn)	-1.52
CC(CC(=O)Nc1cccc2cc(C(=O)Nc3ccc(C#N)cc3C(=O)O)[nH]c12)CC(C)(C)C (stereo not drawn)	-0.30
CC(C)OCC(O)COc1cccc2cc(C(=O)Nc3ccc(C#N)cc3C(=O)O)n(C)c12 (stereo not drawn)	-0.60
COCC1CCCN1S(=O)(=O)c1cc(C(=O)Nc2ccc(C#N)cc2C(=O)O)sc1C (stereo not drawn)	1.81
N#Cc1ccc(NC(=O)c2noc3ccc(NCC(O)CO)cc23)c(C(=O)O)c1 (stereo not drawn)	0.30
CC(C)=CCOCC(O)COc1cccc2cc(C(=O)Nc3ccc(C#N)cc3C(=O)O)n(C)c12 (stereo not drawn)	-0.30
N#Cc1ccc(NC(=O)c2noc3ccc(-c4ccccc4)cc23)c(C(=O)O)c1	-0.90
O=C(O)c1cc(Br)ccc1NC(=O)c1noc2cc(Cl)ccc12	0.00
N#Cc1ccc(NC(=O)c2noc3ccc(NC(=O)Cc4ccccc4)cc23)c(C(=O)O)c1	0.00
O=C(Nc1ccc(Br)cc1C(=O)O)c1csc(S(=O)(=O)N2CCc3ccc(Cl)cc32)c1	0.90
CC(C)(C)c1ccc(CC(=O)Nc2cccc3cc(C(=O)Nc4ccc(C#N)cc4C(=O)O)[nH]c23)cc1	-0.30
N#Cc1ccc(NC(=O)c2ccc(SCc3nsc(Cl)n3)nc2)c(C(=O)O)c1	-0.60
N#Cc1ccc(NC(=O)c2noc3ccc(NC(=O)c4ccccc4)cc23)c(C(=O)O)c1	0.00

The measured values listed here are drawn from patent US20040110802A1.
